Experimental target: FLT1 (human) (UniProt P17948)
Sequence (P17948 whole entry, looked up): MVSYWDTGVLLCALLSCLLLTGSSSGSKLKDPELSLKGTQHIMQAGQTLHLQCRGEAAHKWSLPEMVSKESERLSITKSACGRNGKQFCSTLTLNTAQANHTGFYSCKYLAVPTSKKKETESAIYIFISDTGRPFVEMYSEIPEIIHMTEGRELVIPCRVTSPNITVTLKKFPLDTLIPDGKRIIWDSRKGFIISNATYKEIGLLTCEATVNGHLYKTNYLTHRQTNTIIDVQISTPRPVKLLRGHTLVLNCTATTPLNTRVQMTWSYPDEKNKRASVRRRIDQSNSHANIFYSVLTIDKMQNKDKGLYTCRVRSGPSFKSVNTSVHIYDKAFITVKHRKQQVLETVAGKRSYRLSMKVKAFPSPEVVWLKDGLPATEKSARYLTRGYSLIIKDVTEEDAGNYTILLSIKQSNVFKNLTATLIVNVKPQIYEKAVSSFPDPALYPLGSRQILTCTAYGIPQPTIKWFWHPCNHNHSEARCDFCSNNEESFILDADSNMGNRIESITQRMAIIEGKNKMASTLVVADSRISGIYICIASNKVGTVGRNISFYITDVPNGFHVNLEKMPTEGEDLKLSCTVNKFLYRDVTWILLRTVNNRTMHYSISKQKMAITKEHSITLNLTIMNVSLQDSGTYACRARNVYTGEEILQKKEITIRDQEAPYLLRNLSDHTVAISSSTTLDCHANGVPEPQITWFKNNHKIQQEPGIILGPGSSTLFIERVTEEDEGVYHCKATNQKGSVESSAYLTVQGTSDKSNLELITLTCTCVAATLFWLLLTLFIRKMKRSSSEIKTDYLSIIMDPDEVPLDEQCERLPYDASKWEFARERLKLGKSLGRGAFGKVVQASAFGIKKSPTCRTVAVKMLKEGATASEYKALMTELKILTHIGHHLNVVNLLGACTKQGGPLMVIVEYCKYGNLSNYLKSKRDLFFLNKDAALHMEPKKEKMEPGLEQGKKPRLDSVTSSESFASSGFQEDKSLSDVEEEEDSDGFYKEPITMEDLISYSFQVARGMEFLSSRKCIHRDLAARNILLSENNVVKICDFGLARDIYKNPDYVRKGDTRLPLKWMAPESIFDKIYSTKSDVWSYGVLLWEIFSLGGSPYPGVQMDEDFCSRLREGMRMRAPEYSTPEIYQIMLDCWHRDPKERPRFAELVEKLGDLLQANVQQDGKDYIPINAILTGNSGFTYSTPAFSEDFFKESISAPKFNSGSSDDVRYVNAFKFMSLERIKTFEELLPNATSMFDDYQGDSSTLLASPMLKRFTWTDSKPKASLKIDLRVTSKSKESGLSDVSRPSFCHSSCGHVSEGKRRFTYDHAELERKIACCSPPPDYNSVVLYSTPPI
Experiment: radiometric filter-binding kinase assay
Run conditions: compound 10.0 µM
For each record, check the reported residual activity: if it is below 50% write 1, else write -1.

{"columns": ["Molecule", "Class"],
 "data": [
  ["Cc1nc(-c2ccc(OCC(C)C)c(C#N)c2)sc1C(=O)O", -1],
  ["CNc1nc(-c2ccc3c(N)n[nH]c3c2)cc(N2C[C@@H](C(=O)NC3CCCCC3)CC[C@H]2C)n1", -1],
  ["Cc1ccc(Sc2cnc(Nc3cccc(Br)n3)s2)cc1C(=O)N1CCN(C(=O)CN)CC1", 1],
  ["Nc1cccc2c1CN(C1CCC(=O)NC1=O)C2=O (centres undefined)", -1],
  ["FC(F)(F)c1ccc(-c2ccc(Oc3cncc4sc(-c5nn[nH]n5)cc34)cc2)cc1", 1],
  ["NC(=O)c1cc2c(-c3cccc(-c4ccccc4)c3)cnc(N)c2s1", 1],
  ["CC1=C(CO)C(=O)O[C@@H]([C@@H](C)[C@H]2CC[C@H]3[C@@H]4C[C@H]5O[C@]56[C@@H](O)C=CC(=O)[C@]6(C)C4CC[C@]23C)C1 (some centres undefined)", 1],
  ["Cc1ccc(=O)n(-c2ccccc2)c1", -1],
  ["Oc1ccc2ccccc2c1SSc1c(O)ccc2ccccc12", 1],
  ["CCNc1nc(Nc2cc(F)c(C(=O)N3CCOCC3)cc2OC)ncc1C(F)(F)F", 1],
  ["O=S(=O)(c1ccc(F)c2nonc12)N1CCN(c2ncc(C(F)(F)F)cc2Cl)CC1", -1],
  ["CN1C(=O)[C@@H](Cc2c[nH]c3ccccc23)NC1=S", -1],
  ["c1ccc2c(-c3cnn4cc(-c5ccc(N6CCNCC6)cc5)cnc34)ccnc2c1", 1],
  ["NC1(c2ccc(-c3nc4ccn5c(=O)[nH]nc5c4cc3-c3ccccc3)cc2)CCC1", -1],
  ["C=CC(=O)N1CCC[C@@H](n2nc(-c3ccc(Oc4ccccc4)cc3)c3c(N)ncnc32)C1", 1],
  ["Cc1ccc(-c2ccc3c(ccc4sc5c(c43)NC[C@@H](C)NC5=O)n2)cn1", -1],
  ["CCCC(CCC)C(=O)O", -1],
  ["C[C@H]1CCCC(=O)CCC/C=C/c2cc(O)cc(O)c2C(=O)O1", -1],
  ["Cc1ccc2c(c1)C(=O)[C@@]1(O)CCN(c3ccccc3)C1=N2", -1],
  ["NC(=O)c1ccc(-c2ccc(Oc3cncc4sc(-c5nn[nH]n5)cc34)cc2)cc1", 1],
  ["CCc1cncnc1N1CCN(Cc2nc3cc(C(F)(F)F)ccc3[nH]2)CC1", 1],
  ["CC(C)C[C@H](NC(=O)CNC(=O)c1cc(Cl)ccc1Cl)B1OC(=O)CC(CC(=O)O)(C(=O)O)O1 (some centres undefined)", -1],
  ["NC(=O)c1cc(-c2ccnc(NC3CCCCC3)c2)nc(N2CCNCC2)c1", -1]
]}

====

# maps each entry to its residual activity
Experimental target: DAPK1 (human) (UniProt P53355)
Sequence (P53355 whole entry, looked up): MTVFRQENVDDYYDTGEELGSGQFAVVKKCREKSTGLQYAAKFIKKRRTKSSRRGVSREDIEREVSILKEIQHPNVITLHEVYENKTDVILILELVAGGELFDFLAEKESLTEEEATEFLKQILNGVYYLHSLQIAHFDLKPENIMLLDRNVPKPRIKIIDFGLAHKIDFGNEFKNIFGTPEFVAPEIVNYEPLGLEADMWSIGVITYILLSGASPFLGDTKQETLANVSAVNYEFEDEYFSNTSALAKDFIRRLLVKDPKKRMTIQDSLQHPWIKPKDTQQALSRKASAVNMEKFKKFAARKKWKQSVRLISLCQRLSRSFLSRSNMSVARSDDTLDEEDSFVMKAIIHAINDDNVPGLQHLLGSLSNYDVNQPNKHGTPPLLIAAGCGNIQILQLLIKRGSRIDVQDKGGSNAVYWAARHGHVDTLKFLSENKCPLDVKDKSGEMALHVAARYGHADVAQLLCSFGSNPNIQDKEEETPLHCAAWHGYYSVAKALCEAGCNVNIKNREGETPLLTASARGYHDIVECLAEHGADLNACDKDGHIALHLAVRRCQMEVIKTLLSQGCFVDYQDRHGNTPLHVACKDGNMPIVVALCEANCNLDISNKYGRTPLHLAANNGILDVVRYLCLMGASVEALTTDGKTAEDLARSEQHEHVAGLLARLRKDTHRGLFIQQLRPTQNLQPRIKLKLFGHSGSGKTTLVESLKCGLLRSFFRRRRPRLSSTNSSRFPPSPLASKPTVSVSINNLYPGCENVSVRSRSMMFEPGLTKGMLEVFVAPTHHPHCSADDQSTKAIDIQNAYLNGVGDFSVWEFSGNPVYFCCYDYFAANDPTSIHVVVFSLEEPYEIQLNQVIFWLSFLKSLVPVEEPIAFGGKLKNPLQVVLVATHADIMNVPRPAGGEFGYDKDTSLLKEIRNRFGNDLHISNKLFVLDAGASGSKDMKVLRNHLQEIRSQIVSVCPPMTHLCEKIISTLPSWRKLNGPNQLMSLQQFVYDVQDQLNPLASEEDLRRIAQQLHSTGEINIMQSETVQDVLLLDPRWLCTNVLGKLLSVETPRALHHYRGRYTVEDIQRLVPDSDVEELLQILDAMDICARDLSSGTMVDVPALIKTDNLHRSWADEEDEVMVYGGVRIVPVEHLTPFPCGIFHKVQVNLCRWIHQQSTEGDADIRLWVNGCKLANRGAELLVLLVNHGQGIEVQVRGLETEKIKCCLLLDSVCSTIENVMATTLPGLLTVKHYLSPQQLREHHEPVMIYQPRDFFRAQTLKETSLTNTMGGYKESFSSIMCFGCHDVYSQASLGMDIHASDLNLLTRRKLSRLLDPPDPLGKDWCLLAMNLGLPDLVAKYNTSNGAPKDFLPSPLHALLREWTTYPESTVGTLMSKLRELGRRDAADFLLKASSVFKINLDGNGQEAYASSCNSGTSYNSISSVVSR
Experiment: radiometric filter-binding kinase assay
Run conditions: compound 10.0 µM
Measurement label: residual activity (%)

{"columns": ["Molecule", "Reported"],
 "data": [
  ["CC(C)C[C@H](NC(=O)CNC(=O)c1cc(Cl)ccc1Cl)B1OC(=O)CC(CC(=O)O)(C(=O)O)O1 (stereo not given in full)", 88],
  ["N#Cc1c(O)c2c(-c3ccc(-c4ccccc4O)cc3)csc2[nH]c1=O", 107],
  ["Cc1ccc2c(c1)C(=O)[C@@]1(O)CCN(c3ccccc3)C1=N2", 93],
  ["CCCCCc1ccc(/C=C/[C@H](O)[C@@H](CO)NC)cc1", 103],
  ["Cc1nc(-c2ccc(OCC(C)C)c(C#N)c2)sc1C(=O)O", 60],
  ["NS(=O)(=O)OC[C@@H]1C[C@@H](n2ccc3c(N[C@H]4CCc5ccccc54)ncnc32)C[C@@H]1O", 113],
  ["CCOC(=O)c1ccc(N2NC(=O)/C(=C/c3ccc([N+](=O)[O-])o3)C2=O)cc1", 112],
  ["N#Cc1c(C2CCNCC2)cc(-c2c(O)cccc2OCC2CC2)nc1N", 46],
  ["CCn1c(-c2nonc2N)nc2cncc(CNC3CCNCC3)c21", 35],
  ["C=CC(=O)N1CCC[C@@H](n2nc(-c3ccc(Oc4ccccc4)cc3)c3c(N)ncnc32)C1", 84]
]}
